Entry source: PubChem BioAssay (Tox21)

measurement.description: qHTS assay to identify small molecule antagonists of the estrogen related receptor (ERR) signaling pathway (AID 1224819; note: nearly all actives have a fitted effect of over 50% in size)
settings: ERR reporter cell line, luciferase inhibition; series mostly up to 46.1 µM
Results filed as inconclusive are left out. The source made the active and inactive calls. Calls come from the whole dose curve; as a rule, active = well fitted inhibition curve with a large enough effect in the repeat runs; inconclusive = weak or mixed curves; inactive = no such curve, though single readings can be large or run the other way.
Classes used: active, inactive

{"columns": ["molecule", "category"],
 "data": [
  ["NC(Cc1ccc(Cl)cc1)C(=O)O (stereo not given)", "inactive"],
  ["CNC1(C)C2CCC(C2)C1(C)C (stereo not given)", "inactive"],
  ["CCn1cc(C(=O)O)c(=O)c2cc(F)c(N3CCNC(C)C3)c(F)c21 (stereo not given)", "inactive"],
  ["NC(N)=Nc1nc(CSCC/C(N)=N/S(N)(=O)=O)cs1", "inactive"],
  ["COC(=O)[C@H]1[C@H]2C[C@@H]3c4[nH]c5cc(OC)ccc5c4CCN3C[C@H]2C[C@@H](OC(=O)c2cc(OC)c(OC)c(OC)c2)[C@@H]1OC", "active"]
]}
